tested on: SK-MEL-2 melanoma; assay: NCI-60 one-dose screen, 48 h; settings: 10 µM unless noted
This is part of a sample that, as a whole, favours compounds with a hit. Of some 83,000 tested, about 20% had one in any assay. Activity calls are given as the source filed them. Rule for the calls: active = growth percent below 10; inactive = the rest.
Hello, when you answer, please use one of the following outcomes: active, inactive

Consider the worked cases shown below.
COc1cc(C=O)ccc1OC(=O)c1cc(-c2ccc(C)cc2)n(-c2ccc(S(C)(=O)=O)cc2)n1 :: inactive
FC(F)(F)c1cc2c(Cl)ncnc2n1CCN1CCOCC1 :: inactive
CC(=O)Nc1ccc(S(=O)(=O)Nc2ccc(-c3ccc4c(c3)NC(=O)/C4=C\c3ccc[nH]3)cc2)cc1 :: inactive
Nc1cc(-c2c[nH]c3ccc(F)cc23)nc2cc(-c3c[nH]c4ccccc34)nn12 :: active
COc1ccc(-c2nc3ccc(-c4nnc(SCc5ccccc5)o4)cc3[nH]2)cc1OC :: inactive
N#CC1=C(c2cccs2)Nc2c(c(-c3ccccc3)nn2-c2ccccc2)C12C(=O)Nc1ccc(Br)cc12 (centres undefined) :: active
FC(F)(F)CN1CCN(CCn2c(C(F)(F)F)cc3c(Cl)ncnc32)CC1 :: active
COc1ccc(N=Nc2c(N)nn3c(-c4ccc(OC)c(OC)c4)ccnc23)cc1 :: inactive
Fc1ccccc1CNc1nc(SCCN2CCOCC2)nc2c1cnn2CC(Cl)c1ccc(Br)cc1 (centres undefined) :: inactive
Cc1oc(-c2ccccc2)nc1CN[C@@H]1C[C@@H]2C[C@H]([C@H]1C)C2(C)C :: inactive

Data request: I'd appreciate the recorded outcome for "OC(c1ccccc1)(c1ccccc1)C1CCN(c2ccc3nnc(Cl)n3n2)CC1" from this test.
Data returned: inactive

Data request: I'd appreciate the recorded outcome for "COc1ccc2[nH]c(=O)c(CSc3ccccc3Nc3nccc(-c4ccc(Cl)cc4)n3)cc2c1" from this test.
Data returned: inactive

Data request: I'd appreciate the recorded outcome for "CN1CCN(C(=O)CCN(C(=O)Oc2cc3c(c4ccccc24)[C@H](CCl)CN3C(=O)c2cc3cc(OCCCN4CCC4)ccc3[nH]2)[C@H]2CCSSC2)CC1" from this test.
Data returned: active

====

tested on: SF-539 CNS; test: NCI-60 one-dose screen, 48 h (100 = growth as untreated, 0 = no growth, -100 = all killed); conditions: 10 µM unless noted
This is part of a sample that, as a whole, favours compounds with a hit. Of some 83,000 tested, about 20% had one in any assay.
observable: growth (%)
Reply with just the number (in %).

Cc1ccc(C(=O)Nc2cc(-n3cnc(F)c3)cc(C(F)(F)F)c2)cc1C#Cc1cnc2cccnn12 :: 3.39
O=C(N/N=C/c1ccoc1)c1[nH]c2ccc(Br)cc2c1-c1ccccc1 :: -97.6
Cc1cccc(NCC(=O)N2CCN(c3ncnc4c3cnn4-c3ccccc3)CC2)c1 :: 59.9
Cn1cc(-c2cc(N)n3nc(-c4c[nH]c5ccc(Cl)cc45)cc3n2)c2cc(Br)cnc21 :: -91.1
CC(=O)c1c2c(c3ccc4c5ccccc5ccc4n13)C(=O)c1ccccc1C2=O :: 77.6
COc1cccc2nc(Nc3cccc(NC(=O)c4ccc(CN5CCN(C)CC5)c(C(F)(F)F)c4)c3)ccc12 :: -100
O=c1[nH]c2ccccc2cc1COc1ccc(Nc2nccc(-c3ccc(Cl)cc3)n2)cc1 :: 91.6
O=C(CSc1nnc(-c2ccc(-c3nc4ccccc4[nH]3)cc2)o1)Nc1ccccc1 :: 46.7
COc1c(B(O)O)cc(F)cc1-c1nc2c(F)cc3[nH]ncc3c2c2c1CCCC2 :: -44
CS(=O)(=O)Nc1cncc(-c2ccc3ncnc(NCc4ccccc4)c3c2)c1 :: 23.9

Data request: Which growth value belongs to "Nc1nnc(CS(=O)(=O)c2ccccc2)s1" ?
Data returned: 101

Data request: Which growth value belongs to "O=C(Nc1ccc(S(=O)(=O)N2CCCCC2)cc1)C(Cl)Cl" ?
Data returned: 107

Data request: Which growth value belongs to "COc1ccc(Nc2nnc(-c3c[nH]c4ccccc34)o2)cc1" ?
Data returned: 69.7

Data request: Which growth value belongs to CCN1C(=O)N(CC)C2NNC(Sc3c(C(=O)O)c4ccccc4n(CCC(C)C)c3=O)=NC21 (centres undefined) ?
Data returned: -53.4

Data request: Which growth value belongs to "Clc1ccc(Nc2nnc(-c3c[nH]c4ccccc34)o2)cc1" ?
Data returned: 66.5

Data request: Which growth value belongs to "O=C1c2cccc3c(N4CCN(Cc5ccccc5)CC4)ccc(c23)C(=O)N1c1cccc(-c2nn(-c3ccccc3)cc2-c2nc3ccccc3s2)c1" ?
Data returned: 97
